- subject of test: T1, hRGMc-His (human, UniProt Q6ZVN8 36-400, limits assumed)
- T1 construct: also called human RGMc; not shown: His tag
- T1 sequence (looked up): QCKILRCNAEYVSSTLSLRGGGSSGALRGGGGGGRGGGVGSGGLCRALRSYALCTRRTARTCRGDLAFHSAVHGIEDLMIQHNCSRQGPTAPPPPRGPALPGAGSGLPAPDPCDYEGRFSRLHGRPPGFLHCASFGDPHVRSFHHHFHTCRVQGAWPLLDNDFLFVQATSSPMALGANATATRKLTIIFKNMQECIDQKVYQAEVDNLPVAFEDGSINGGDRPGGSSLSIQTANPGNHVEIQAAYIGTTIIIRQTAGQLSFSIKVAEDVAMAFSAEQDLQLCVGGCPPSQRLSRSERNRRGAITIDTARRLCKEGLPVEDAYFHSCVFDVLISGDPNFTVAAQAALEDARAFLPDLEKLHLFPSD
- assay info: BIAcore binding

| binder | binding result |
| --- | --- |
| AE12-1-Y (antibody, V domains shown, AE12-1 variant; IgG) VH: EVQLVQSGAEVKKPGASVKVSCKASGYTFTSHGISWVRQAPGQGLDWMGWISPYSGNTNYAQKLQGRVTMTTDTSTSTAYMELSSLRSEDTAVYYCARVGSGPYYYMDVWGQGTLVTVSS VL: QSALTQPRSVSGSPGQSVTISCTGTSSSVGDSIYVSWYQQHPGKAPKLMLYDVTKRPSGVPDRFSGSKSGNTASLTISGLQAEDEADYYCYSYAGTDTLFGGGTKVTVL | no binding |
| AE12-1-H (antibody, V domains shown, AE12-1 variant; IgG) VH: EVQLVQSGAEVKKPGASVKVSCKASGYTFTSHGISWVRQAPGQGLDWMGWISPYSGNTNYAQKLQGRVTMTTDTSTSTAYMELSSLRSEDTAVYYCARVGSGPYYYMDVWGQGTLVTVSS VL: QSALTQPRSVSGSPGQSVTISCTGTSSSVGDSIYVSWYQQHPGKAPKLMLYDVTKRPSGVPDRFSGSKSGNTASLTISGLQAEDEADYYCHSYAGTDTLFGGGTKVTVL | no binding |
| AE12-1-F (antibody, V domains shown, AE12-1 variant, Cys of VL CDR-L3 replaced; IgG) VH: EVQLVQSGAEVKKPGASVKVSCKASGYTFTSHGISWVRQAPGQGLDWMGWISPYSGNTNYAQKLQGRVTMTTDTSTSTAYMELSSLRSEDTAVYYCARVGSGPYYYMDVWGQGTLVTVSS VL: QSALTQPRSVSGSPGQSVTISCTGTSSSVGDSIYVSWYQQHPGKAPKLMLYDVTKRPSGVPDRFSGSKSGNTASLTISGLQAEDEADYYCFSYAGTDTLFGGGTKVTVL | no binding |
| AE12-1-K (antibody, V domains shown, AE12-1 variant; IgG) VH: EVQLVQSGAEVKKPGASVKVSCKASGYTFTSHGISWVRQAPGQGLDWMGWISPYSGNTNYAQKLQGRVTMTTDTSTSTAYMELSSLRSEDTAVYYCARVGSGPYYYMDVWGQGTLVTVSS VL: QSALTQPRSVSGSPGQSVTISCTGTSSSVGDSIYVSWYQQHPGKAPKLMLYDVTKRPSGVPDRFSGSKSGNTASLTISGLQAEDEADYYCKSYAGTDTLFGGGTKVTVL | no binding |

The origin of these recorded values is patent US20160326240A1.
